# tgt: T1, human Galectin-3 (Gal3), full-length recombinant (human, UniProt P17931 2-250)
# T1 construct: treated here as one molecule; also called hGAL3; hGal3
# protocol.details: not stated. Exponent is printed without a minus sign; value taken as a negative power of ten because the column is a KD in M
parameter.measured: Kd (nM)
Number only, in nM; omit the unit.

Value of measured Kd for the entry F847C.12F12 (antibody, V domains shown, also called 84712F12) VH: QIQLVQSGPELKKPGETVKISCKASGYTFTNYGMNWVKQAPGKGLKWMGWINTYTGEPTYVDDFKGRFAFSLETSASTAYLRINNLKNEDTATYFCAKFGNYVGAMDYWGQGTSVTVSS VL: DIQVIQSPSSLSASLGDTITITCHASQNINVWLSWYQQKPGNIPKLLIYKASNLHTGVPSRFSGSGSGTGFTLTISSLQPEDIATYYCQQGQSYPYTFGGGTKLELKR : 19.2

Value of measured Kd for the entry F846C.1H12 (antibody, human IgG4 S228P, kappa, V domains shown, also called 846.1H12) VH: QIQLVQSGPELKKPGETVKISCKASGYTFTNFGMNWVKQAPGKGLKWMGWINTYTGEPSYADDFKGRFAFSLETSASTAYLQINNLKNEDIATYFCARWGGYAGDYYAMDYWGQGTSVTVSS VL: NIMMTQSPSSLAVSAGQKVTMSCKSSQSVLYSSSQKNYLAWYQQKPGQSPKLLIYWASTRESGVPDRFSGSGSGTDFTLTISSVQPEDLAVYYCHQYLSSLTFGAGTKLELKR : 0.622

Value of measured Kd for the entry F846C.1F5 (antibody, human IgG4 S228P, kappa, V domains shown, also called 846.1F5) VH: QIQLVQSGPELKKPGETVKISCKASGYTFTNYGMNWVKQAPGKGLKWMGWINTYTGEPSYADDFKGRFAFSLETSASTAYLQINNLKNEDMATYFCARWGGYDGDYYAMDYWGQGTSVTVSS VL: NIMMTQSPSSLAVSAGEKVTMSCKSSQSVLYSSNQKNYLAWYQQKPGQSPKLLIYWASTRESGVPDRFTGSGSGTDFTLTISSVQPEDLAVYYCHQYLSSLTFGAGTKLELKR : 1.63
